experiment: Clearance in rat at 1 mg/kg, iv administered as single dose by capillary micro-sampling analysis; assay type: ADME, organism-based; settings: in vivo
attribute_measured: clearance

[ask] Suppose we examine the molecule NS(=O)(=O)CC(=O)NCCSc1nonc1/C(=N/O)Nc1cccc(Cl)c1 ; what clearance value has been reported?
[reply] 3.65 mL/min/kg

----------
Molecular target: UGT1A9 (Homo sapiens)
Sequence (O60656 whole entry): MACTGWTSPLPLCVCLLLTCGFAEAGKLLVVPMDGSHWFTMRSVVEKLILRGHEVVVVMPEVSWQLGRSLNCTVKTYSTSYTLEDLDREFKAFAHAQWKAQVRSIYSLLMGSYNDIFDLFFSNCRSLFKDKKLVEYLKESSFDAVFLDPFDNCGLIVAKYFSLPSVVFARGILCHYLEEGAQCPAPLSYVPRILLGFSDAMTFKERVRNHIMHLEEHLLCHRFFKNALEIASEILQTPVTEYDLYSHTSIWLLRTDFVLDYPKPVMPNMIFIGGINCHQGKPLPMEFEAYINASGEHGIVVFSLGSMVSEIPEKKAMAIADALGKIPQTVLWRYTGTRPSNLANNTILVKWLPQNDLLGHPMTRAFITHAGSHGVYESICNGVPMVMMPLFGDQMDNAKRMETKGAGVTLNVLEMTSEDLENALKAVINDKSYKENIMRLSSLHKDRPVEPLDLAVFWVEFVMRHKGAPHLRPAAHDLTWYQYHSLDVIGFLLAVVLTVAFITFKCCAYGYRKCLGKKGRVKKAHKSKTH
Test: Stability assessed as recombinant UGT1A9 (unknown origin) mediated compound glucuronidation by measuring half-life at 1 uM incubated in water bath by shaking at 37 degree C measured upto 60 mins in presence of UDPGA by LC-MS/MS analysis
Assay type: ADME
attribute_measured: half-life at 1 µM (min)
Write the answer as a number in min, unit excluded.

[ask] Look up half-life at 1 µM: NS(=O)(=O)NCCNc1nonc1C(=NO)Nc1ccc(F)c(Br)c1 [EPACADOSTAT]
[reply] 23

[ask] half-life at 1 µM for CS(=O)(=O)CCC(=O)NCCSc1nonc1/C(=N/O)Nc1ccc(F)c(Br)c1 ?
[reply] 51.5

----------
target: Indoleamine 2,3-dioxygenase 1 (Homo sapiens); assay: Inhibition IDO1 in LPS/IFN-gamma stimulated human whole blood assessed as reduction in tryptophan/kynurenine level preincubated for 15 mins followed by LPS/IFN-gamma stimulation measured after 20 hrs by LC-MS/MS analysis; assay type: tissue-based
Sequence (P14902 whole entry): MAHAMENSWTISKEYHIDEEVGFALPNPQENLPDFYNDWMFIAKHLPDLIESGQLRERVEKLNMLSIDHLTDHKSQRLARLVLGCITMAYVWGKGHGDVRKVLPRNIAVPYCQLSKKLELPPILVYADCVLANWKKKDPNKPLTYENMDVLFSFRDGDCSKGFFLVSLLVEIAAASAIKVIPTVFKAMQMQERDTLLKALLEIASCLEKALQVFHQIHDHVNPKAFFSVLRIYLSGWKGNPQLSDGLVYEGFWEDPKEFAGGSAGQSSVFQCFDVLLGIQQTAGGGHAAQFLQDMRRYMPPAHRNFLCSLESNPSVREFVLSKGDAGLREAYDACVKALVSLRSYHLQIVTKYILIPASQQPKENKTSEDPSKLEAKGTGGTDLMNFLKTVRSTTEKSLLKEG
attribute_measured: IC50 (nM)
Express your answer in nM, writing the number without its unit.

[ask] # query: IC50 of entry NS(=O)(=O)CC(=O)NCCSc1nonc1/C(=N/O)Nc1cccc(Cl)c1
[reply] 220

[ask] Name the reported IC50 value associated with the compound NS(=O)(=O)NCC(=O)NCCSc1nonc1/C(=N/O)Nc1ccc(F)c(C(F)F)c1
[reply] 320

----------
experiment: Half life in human liver microsomes; assay type: ADME, Microsome
Consider the cut-off 100 min. If the recorded half-life is strictly smaller, the label is Criterion met; if not, the label is Criterion not met.

[ask] Determine if NS(=O)(=O)CC(=O)NCCSc1nonc1/C(=N/O)Nc1ccc(F)c(C(F)(F)F)c1 shows half-life strictly lower than 100 min.
[reply] Criterion not met

[ask] Please indicate whether the reported half-life of CS(=O)(=O)NCCSc1nonc1/C(=N/O)Nc1ccc(F)c(Br)c1 is strictly below 100 min.
[reply] Criterion not met

[ask] Does this compound meet the criterion half-life < 100 min? CS(=O)(=O)CCC(=O)NCCSc1nonc1/C(=N/O)Nc1ccc(F)c(Br)c1
[reply] Criterion not met

[ask] For C[C@H](CSc1nonc1/C(=N/O)Nc1ccc(F)c(Br)c1)NC(=O)CS(N)(=O)=O , is the recorded half-life below the cut-off of 100 min?
[reply] Criterion met

[ask] Answer whether the compound NS(=O)(=O)CC(=O)NCCSc1nonc1/C(=N/O)Nc1ccc(F)c(Br)c1 has half-life strictly less than 100 min
[reply] Criterion not met

[ask] Regarding CS(=O)(=O)CC(=O)NCCSc1nonc1/C(=N/O)Nc1ccc(F)c(C(F)F)c1 , kindly confirm whether its half-life is beneath 100 min.
[reply] Criterion met

[ask] Hi there! Is half-life for NS(=O)(=O)CC(=O)NCCSc1nonc1/C(=N/O)Nc1cccc(Cl)c1 below 100 min, do you know?
[reply] Criterion not met

[ask] Lab note: confirm whether the reported half-life for this compound is below 100 min, equality not counting. compound: NS(=O)(=O)CC(=O)NCCSc1nonc1/C(=N/O)Nc1cccc(C(F)F)c1
[reply] Criterion not met

[ask] Criterion: half-life strictly below 100 min. Is it met by N#Cc1cc(N/C(=N\O)c2nonc2SCCNC(=O)CS(N)(=O)=O)ccc1F ?
[reply] Criterion not met

[ask] Is it true that half-life reported for CS(=N)(=O)CC(=O)NCCSc1nonc1/C(=N/O)Nc1ccc(F)c(Br)c1 (stereo not given) is less than 100 min?
[reply] Criterion not met

----------
Please provide measured log10 half-life at 1 µM for the entries that follow.
biological target: UGT1A9 (Homo sapiens); test: Stability assessed as recombinant UGT1A9 (unknown origin) mediated compound glucuronidation by measuring half-life at 1 uM incubated in water bath by shaking at 37 degree C measured upto 60 mins in presence of UDPGA by LC-MS/MS analysis; assay type: ADME
Hey, these are logged values: log10 of half-life at 1 µM, h being the unit before logging.

[ask] Fill in: log10 half-life at 1 µM of NS(=O)(=O)CC(=O)NCCSc1nonc1/C(=N/O)Nc1cccc(Cl)c1 is ___
[reply] -0.05

[ask] Value lookup for log10 half-life at 1 µM; key = NS(=O)(=O)NCCSc1nonc1/C(=N/O)Nc1ccc(F)c(Br)c1
[reply] -0.74

[ask] For CS(=N)(=O)CC(=O)NCCSc1nonc1/C(=N/O)Nc1ccc(F)c(Br)c1 (stereo not given) , what is its reported log10 half-life at 1 µM?
[reply] 0.18

[ask] Name the reported log10 half-life at 1 µM value associated with the compound CS(=O)(=O)NCCSc1nonc1/C(=N/O)Nc1ccc(F)c(Br)c1
[reply] -0.45

[ask] # input compound: C[C@H](CSc1nonc1/C(=N/O)Nc1ccc(F)c(Br)c1)NC(=O)CS(N)(=O)=O ; wanted: its log10 half-life at 1 µM
[reply] 0.12

[ask] log10 half-life at 1 µM for NS(=O)(=O)CC(=O)NCCSc1nonc1/C(=N/O)Nc1ccc(F)c(Br)c1 ?
[reply] -0.12

[ask] Tell me the measured log10 half-life at 1 µM of N#CCC(=O)NCCSc1nonc1/C(=N/O)Nc1ccc(F)c(C(F)F)c1 , please.
[reply] 0.24

[ask] Recorded log10 half-life at 1 µM for CS(=O)(=O)CC(=O)NCCSc1nonc1/C(=N/O)Nc1ccc(F)c(C(F)F)c1 , please?
[reply] 0.20

[ask] Please look up its log10 half-life at 1 µM: NS(=O)(=O)CC(=O)NCCSc1nonc1/C(=N/O)Nc1ccc(F)c(C(F)(F)F)c1
[reply] 0.16

[ask] Suppose we examine the compound NS(=O)(=O)CC(=O)NCCSc1nonc1/C(=N/O)Nc1cccc(Br)c1 ; what log10 half-life at 1 µM value has been reported?
[reply] -0.02

[ask] Recorded log10 half-life at 1 µM of NS(=O)(=O)NCCOc1nonc1/C(=N/O)Nc1ccc(F)c(Br)c1 , please.
[reply] -1.32

----------
test: Volume of distribution in rat at 1 mg/kg, iv administered as single dose by capillary micro-sampling analysis; assay type: ADME, organism-based; settings: in vivo
attribute_measured: Vd

[ask] Entry NS(=O)(=O)CC(=O)NCCSc1nonc1/C(=N/O)Nc1cccc(Cl)c1 : reported Vd = ?
[reply] 0.33 L/kg

----------
Consider the following molecules; for each one, report its IC50.
target: Indoleamine 2,3-dioxygenase 1 (Homo sapiens); experiment: Inhibition of human N-terminal GST-tagged IDO1 expressed in Escherichia coli Rosetta(DE3) pLysS using L-tryptophan as substrate measured after 1 hr by fluorescence assay
Give just the number in µM; leave the unit off.

[ask] Please state recorded IC50 (tested on Indoleamine 2,3-dioxygenase 1 (Homo sapiens)) of NS(=O)(=O)CC(=O)NCCSc1nonc1/C(=N/O)Nc1cccc(C(F)(F)F)c1
[reply] 0.14

[ask] What IC50 appears in the records for this molecule with Indoleamine 2,3-dioxygenase 1 (Homo sapiens)? CSc1nonc1/C(=N/O)Nc1ccc(F)c(Br)c1
[reply] 0.56

[ask] Value wanted: IC50 (Indoleamine 2,3-dioxygenase 1 (Homo sapiens)) of entry CC(C)(O)CC(=O)NCCSc1nonc1/C(=N/O)Nc1ccc(F)c(C(F)F)c1
[reply] 0.14

[ask] Request - read-out IC50 | tested on Indoleamine 2,3-dioxygenase 1 (Homo sapiens) | molecule C[C@H](CSc1nonc1/C(=N/O)Nc1ccc(F)c(Br)c1)NC(=O)CS(N)(=O)=O
[reply] 0.11

[ask] What IC50 appears in the records for this molecule with Indoleamine 2,3-dioxygenase 1 (Homo sapiens)? CS(=O)(=O)CC(=O)NCCSc1nonc1/C(=N/O)Nc1ccc(F)c(C(F)F)c1
[reply] 0.1

[ask] Form entry - test system: Indoleamine 2,3-dioxygenase 1 (Homo sapiens); read-out: IC50; molecule: NS(=O)(=O)NCCSc1nonc1/C(=N/O)Nc1ccc(F)c(Br)c1
[reply] 0.13

[ask] Give recorded IC50 with Indoleamine 2,3-dioxygenase 1 (Homo sapiens) for the following molecule: N#Cc1cc(N/C(=N\O)c2nonc2SCCNC(=O)CS(N)(=O)=O)ccc1F
[reply] 0.15

[ask] Request: IC50, test system Indoleamine 2,3-dioxygenase 1 (Homo sapiens), entry CS(=N)(=O)CC(=O)NCCSc1nonc1/C(=N/O)Nc1ccc(F)c(Br)c1 (centres undefined)
[reply] 0.061

[ask] So what IC50 did NS(=O)(=O)CC(=O)NCCSc1nonc1/C(=N/O)Nc1cccc(Br)c1 get with Indoleamine 2,3-dioxygenase 1 (Homo sapiens)?
[reply] 0.03

[ask] Hello, I am looking for reported IC50 with Indoleamine 2,3-dioxygenase 1 (Homo sapiens) for CC1(C(=O)NCCSc2nonc2/C(=N/O)Nc2ccc(F)c(C(F)F)c2)CCN1 (centres undefined) . Could you help?
[reply] 0.36

[ask] # value lookup — system Indoleamine 2,3-dioxygenase 1 (Homo sapiens), readout IC50, item NS(=O)(=O)CC(=O)NCCSc1nonc1/C(=N/O)Nc1ccc(F)c(C(F)F)c1
[reply] 0.073

[ask] What value of IC50 on Indoleamine 2,3-dioxygenase 1 (Homo sapiens) does NS(=O)(=O)CC(=O)NCCSc1nonc1/C(=N/O)Nc1ccc(F)c(C(F)(F)F)c1 have?
[reply] 0.084

[ask] Quick check: IC50 on Indoleamine 2,3-dioxygenase 1 (Homo sapiens), item NS(=O)(=O)CC(=O)NCCSc1nonc1/C(=N/O)Nc1cccc(Cl)c1 ?
[reply] 0.021

[ask] Recall the recorded IC50 for CS(=O)(=O)NCCSc1nonc1/C(=N/O)Nc1ccc(F)c(Br)c1 with Indoleamine 2,3-dioxygenase 1 (Homo sapiens) and state it.
[reply] 0.27

[ask] API: value(readout=IC50, system=Indoleamine 2,3-dioxygenase 1 (Homo sapiens)) for record O=C(NCCSc1nonc1/C(=N/O)Nc1ccc(F)c(C(F)F)c1)C1CS(=O)(=O)C1
[reply] 0.07

[ask] // lookup IC50 | system=Indoleamine 2,3-dioxygenase 1 (Homo sapiens) | key= C[C@@H](CSc1nonc1/C(=N/O)Nc1ccc(F)c(Br)c1)NC(=O)CS(N)(=O)=O
[reply] 0.093

[ask] Give the reported IC50 for NS(=O)(=O)NCCOc1nonc1/C(=N/O)Nc1ccc(F)c(Br)c1 (system: Indoleamine 2,3-dioxygenase 1 (Homo sapiens)).
[reply] 0.15

[ask] Which measured IC50 belongs to NS(=O)(=O)CC(=O)NCCSc1nonc1/C(=N/O)Nc1ccc(F)c(Br)c1 , tested on Indoleamine 2,3-dioxygenase 1 (Homo sapiens)?
[reply] 0.071

[ask] What reported IC50 corresponds to NS(=O)(=O)NCC(=O)NCCSc1nonc1/C(=N/O)Nc1ccc(F)c(C(F)F)c1 on Indoleamine 2,3-dioxygenase 1 (Homo sapiens)?
[reply] 0.093

[ask] Find the measured IC50: item N#Cc1cccc(N/C(=N\O)c2nonc2SCCNC(=O)CS(N)(=O)=O)c1 , target or system Indoleamine 2,3-dioxygenase 1 (Homo sapiens).
[reply] 0.24

[ask] Indoleamine 2,3-dioxygenase 1 (Homo sapiens) / IC50 / CS(=O)(=O)CCC(=O)NCCSc1nonc1/C(=N/O)Nc1ccc(F)c(Br)c1 : value?
[reply] 0.14

[ask] Give the reported IC50 for N#CCC(=O)NCCSc1nonc1/C(=N/O)Nc1ccc(F)c(C(F)F)c1 (system: Indoleamine 2,3-dioxygenase 1 (Homo sapiens)).
[reply] 0.18

[ask] Query IC50 on Indoleamine 2,3-dioxygenase 1 (Homo sapiens) for NS(=O)(=O)CC(=O)NCCSc1nonc1/C(=N/O)Nc1cccc(C(F)F)c1
[reply] 0.13

[ask] Requested read-out IC50, target or system Indoleamine 2,3-dioxygenase 1 (Homo sapiens), entry COc1nonc1/C(=N/O)Nc1ccc(F)c(Br)c1
[reply] 0.23
